Experiment: Cytotoxicity against mouse RAW264.7 cells assessed as cell viability at 2.34 uM after 48 hrs by MTT assay
Type: cell-based
Conditions: read-out: Activity
For each record, write down the corresponding viability at 48 h, 2.34 µM.
Numbers only, in %.

| Molecule | Unit tag | viability at 48 h, 2.34 µM |
| --- | --- | --- |
| O=c1cc(/C=C/c2ccc(O)cc2)oc2ccccc12 | % | 86 |

// next item, viability at 48 h, 2.34 µM requested
Asked: Param item = "C/C(=C\c1ccccc1)c1oc2ccccc2c(=O)c1O" ; retrieve measured viability at 48 h, 2.34 µM.
Given back: 81

----------
Assay: Cytotoxicity against mouse RAW264.7 cells assessed as maximum non-toxic dose after 48 hrs by MTT assay
Assay type: cell-based
Conditions: read-out: MNTD70
Value kind: MNTC at 48 h

// below: answered compounds
| Molecule | MNTC at 48 h |
| --- | --- |
| COc1ccc(/C=C/c2cc(=O)c3ccccc3o2)cc1 | > 100 µM |
| O=c1cc(/C=C/c2ccc(Cl)cc2)oc2ccccc12 | > 150 µM |
| O=c1cc(/C=C/c2ccccc2)oc2cccc(O)c12 | > 150 µM |

Hi team, please reply with MNTC at 48 h for each item in this list.
1. Cc1ccc(/C=C/c2cc(=O)c3ccccc3o2)cc1
2. O=c1c(O)c(/C=C/c2ccccc2)oc2ccccc12
3. O=c1cc(/C=C/c2ccccc2)oc2ccccc12
4. O=c1cc(/C=C/c2ccc(O)cc2)oc2ccccc12

Given back:
1: > 150 µM; 2: 18.8 µM; 3: > 150 µM; 4: > 150 µM

Parameters: items (list). Returns: MNTC at 48 h for each item.
1. COc1c(/C=C/c2ccccc2)oc2ccccc2c1=O
2. C/C(=C\c1ccccc1)c1cc(=O)c2ccccc2o1
3. O=c1cc(/C=C/c2ccccc2)oc2cccc(OCc3ccccc3)c12
4. C/C(=C\c1ccccc1)c1oc2ccccc2c(=O)c1O
5. O=c1ccoc2ccccc12

Given back:
75 µM
> 150 µM
> 150 µM
18.8 µM
> 150 µM

----------
So I've got a bunch of molecules here, and I need their MNTC at 48 h values.
Assay: Cytotoxicity against mouse RAW264.7 cells assessed as maximum non-toxic dose after 48 hrs by MTT assay
Assay type: cell-based
Details: read-out: MNTD90
Give bare numbers, in µM.

Example entries and their recorded answers appear below.
| Molecule | MNTC at 48 h, µM |
| --- | --- |
| O=c1cc(/C=C/c2ccccc2)oc2ccccc12 | 75 |
| O=c1ccoc2ccccc12 | 37.5 |
| COc1c(/C=C/c2ccccc2)oc2ccccc2c1=O | 37.5 |
| COc1ccc(/C=C/c2cc(=O)c3ccccc3o2)cc1 | 50 |
| O=c1cc(/C=C/c2ccccc2)oc2cccc(OCc3ccccc3)c12 | 75 |
| O=c1c(O)c(/C=C/c2ccccc2)oc2ccccc12 | 2.34 |

Consider the following items and state reported MNTC at 48 h for each.
1. O=c1cc(/C=C/c2ccccc2)oc2cccc(O)c12
2. O=c1cc(/C=C/c2ccc(Cl)cc2)oc2ccccc12

Given back:
4.69
75

----------
Experiment: Cytotoxicity against mouse RAW264.7 cells assessed as maximum non-toxic dose after 48 hrs by MTT assay
Format: cell-based
Conditions: read-out: MNTD90
Value kind: MNTC at 48 h

Use these answered entries as a reference point.
| Molecule | MNTC at 48 h |
| --- | --- |
| C/C(=C\c1ccccc1)c1cc(=O)c2ccccc2o1 | > 150 µM |
| Cc1ccc(/C=C/c2cc(=O)c3ccccc3o2)cc1 | > 150 µM |
| C/C(=C\c1ccccc1)c1oc2ccccc2c(=O)c1O | < 2.34 µM |

We now examine a further molecule.
Asked: Dear colleague, I am looking for the recorded MNTC at 48 h of the following molecule: "O=c1cc(/C=C/c2ccc(O)cc2)oc2ccccc12"
Given back: < 2.34 µM
